Where do the numbers come from? From PubChem BioAssay.

Assay: E. coli acrAB mutant growth effects, primary screen, E. coli filamentation inducers, strain DRC39, OD650, 48 h (AID 1179);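 also: screen aims at cell division blockers that make cells filament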
Conditions: E. coli DRC39 delta-acrAB growth, higher = more signal, called active from +8 up or from −8 down
The source made the active and inactive calls.
Entries and their z-score values follow.

Compound	z-score
C=CCNC(=O)[C@H]1[C@@H]2C(=O)O[C@@H](c3ccccc3)[C@@H](c3ccccc3)N2[C@@H](c2ccc(OCCO)cc2)[C@]12C(=O)Nc1ccc(C#Cc3ccc(OC)cc3)cc12	-0.995 (inactive)
NCCCCCCNC(=O)[C@@H]1C[C@@H]2C(=O)NCC(=O)N2[C@@H]1c1cccc(OCCO)c1	0.976 (inactive)
CN1C(=O)C2C=CC(C(O)COCc3ccccc3)N(Nc3ccc([N+](=O)[O-])cc3[N+](=O)[O-])C2C1=O (centres undefined)	-0.445 (inactive)
C=C(/C=C\CNS(=O)(=O)c1ccc(C)cc1)[C@H](O)[C@H]1CCCN1S(=O)(=O)c1ccccc1[N+](=O)[O-]	-0.23 (inactive)
O=C(O)C1=CC[C@H]2C(=O)N(c3ccccc3)C(=O)[C@@H]12	-0.453 (inactive)
N#Cc1ccc(NN2C(C(O)c3ccc(B(O)O)cc3)C=CC3CN(c4ccccc4)C(=O)C32)cc1 (centres undefined)	0.934 (inactive)
CN1C(=O)C2C=CC(C(O)c3ccc(I)cc3)N(N(c3ccccc3)c3ccccc3)C2C1=O (centres undefined)	-0.105 (inactive)
Cc1ccc(N2C(=O)c3ccccc3[C@@H](C(=O)NCCN3CCOCC3)[C@@H]2c2ccc(CO)cc2)nc1	0.663 (inactive)

# query: z-score of entry "Cc1ccc(S[C@]2(C(=O)NC(C)C)CC(=O)N(Cc3ccccc3)[C@@H]2c2ccc(CO)cc2)cc1"
1.62 (inactive)

# query: z-score of entry "COC(=O)[C@@]1(Cc2ccc(F)cc2)[C@@H]2C(=CC(=O)[C@H]2CC(=O)C(=O)N2CCCC2)CN1C(=O)c1ccccc1"
-0.363 (inactive)

# query: z-score of entry COC(=O)C1=CC(c2ccc(CO)cc2)=CC(C2CC2)N(Cc2cc3c(cc2Br)OCO3)C=C1C(=O)OC (centres undefined)
-0.0391 (inactive)

* * *

Entries and their composite z-score values follow.
Test: compound binding in COS7 lysate, probe aLAP1, primary screen, cell lysate, small-molecule microarray (AID 1124);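 also: lysate comes from COS7 cells expressing LAP1 and is applied at 0.3 µg/mL; score merges spot fluorescence near 667 nm with signal-to-noise over triplicate slides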
Details: probe aLAP1, fluorescence, higher = more signal
Hey, just send me the number, nothing else.

COC(=O)C(CC#Cc1ccc2c(c1)[C@]1(C(=O)N2)[C@H](C(=O)N2CCN(c3ncccn3)CC2)[C@H]2C(=O)O[C@H](c3ccccc3)[C@H](c3ccccc3)N2[C@@H]1c1ccc(O)cc1)C(=O)OC 0.97

# query: composite z-score of entry "COCCOC(=O)N1C(=O)[C@@]2(c3cc(C#CCNC(N)=O)ccc31)[C@H](c1ccc(O)cc1)N1[C@H](c3ccccc3)[C@H](c3ccccc3)OC(=O)[C@H]1[C@@H]2C(=O)N1CCc2cc(OC)c(OC)cc2C1"
-0.0347

# query: composite z-score of entry "O=C(NC1CC1)[C@@H]1c2ccccc2C(=O)N(C2CCCCC2)[C@H]1c1ccc(CO)cc1"
1.99

* * *

Entries and their composite z-score values follow.
Assay: small-molecule microarray binders of probe aEGFR, primary screen, biochemical, biotinylated probe, 635/667 nm fluorescence (AID 1097);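 also: probe is a biotinylated anti-EGFR antibody binding compounds printed on slides; score combines fluorescence near 667 nm and signal to noise of each spot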
Details: higher = more signal
Hey, just send me the number, nothing else.

Previously resolved entries follow.
Compound	Assay Metric	Value Reported
C=CCNC(=O)[C@@H]1[C@H]2C(=O)O[C@H](c3ccccc3)[C@H](c3ccccc3)N2[C@H](c2ccc(OCCO)cc2)[C@@]12C(=O)Nc1ccc(C#CCNC(N)=O)cc12	composite z-score	-0.182
CC(C)N1CC=CC23O[C@@H]4/C=C\CCCOC(=O)C4[C@H]2C(=O)N(C(C)CO)[C@@H]3C1=O (some centres undefined)	composite z-score	-0.297
C=C(C(=O)CC[C@@H](OC(=O)c1cccnc1)c1cccc(OCCO)c1)C(C)C	composite z-score	0.0391

# input for lookup
# query: composite z-score of entry "COC(=O)C(CC#Cc1ccc2c(c1)[C@]1(C(=O)N2)[C@H](C(N)=O)[C@H]2C(=O)O[C@H](c3ccccc3)[C@H](c3ccccc3)N2[C@@H]1c1ccccc1OCCO)C(=O)OC"
0.0167

* * *

Entries and their z-score values follow.
Test: inhibitors of hydroxyurea-induced Chk1 phosphorylation, primary screen, imaging, HeLa, phospho-Chk1 nuclear intensity (AID 1187); also: test concentration not given here
Conditions: hydroxyurea-induced phospho-Chk1 immunofluorescence imaging, higher = more signal
Hey, just send me the number, nothing else.

Compound	z-score
CCOC(=O)C1=CCC(c2cccn2C(=O)OC(C)(C)C)N(S(=O)(=O)c2ccc(C)cc2)C1 (configuration not stated)	-1.18
[N-]=[N+]=NCc1ccccc1[C@H]1OC(c2ccc(OCCCO)cc2)=N[C@@]1(CCS(=O)(=O)c1ccccc1)C(=O)NCCN1CCOCC1	-0.0229

# query: z-score of entry "C=C(/C=C\CNS(=O)(=O)c1ccc(C)cc1)[C@H](O)[C@H]1CCCN1S(=O)(=O)c1ccccc1[N+](=O)[O-]"
0.161

* * *

Target: Dihydroorotate dehydrogenase (quinone), mitochondrial (Plasmodium falciparum (isolate 3D7))
Assay: PfDHODH enzyme inhibitors, primary screen, biochemical, C-terminal His tag, absorbance 600 nm (AID 1175);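 also: recombinant parasite enzyme with a five histidine tag at its C terminus; test concentration not given here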
Conditions: DCIP absorbance 600 nm, higher = more signal, called active from +8 up or from −8 down
Binary classification by composite z-score, with -0.6 as an inclusive lower bound for 1 (yes); all other cases are 0 (no).

A selection of reference data follows.
Molecule	Discrete Label
CN(C)CCCCCCNC(=O)[C@@H]1C[C@@H]2C(=O)N[C@@H](CCCC[N+](C)(C)C)C(=O)N2[C@@H]1c1cccc(OCCO)c1	0 (no)
COc1ccc([Si](C)(C)[C@H]2[C@H](CC(=O)N3CCC[C@H]3CO)O[C@@]3(C(=O)N(C)c4ccccc43)[C@@H]2C)cc1	1 (yes)
O=C1C[C@@](C(=O)NCC(F)(F)F)(c2ccc([N+](=O)[O-])cc2)[C@@H](c2ccc(CO)cc2I)N1CC12CC3CC(CC(C3)C1)C2	0 (no)
COc1ccc(NN2C(C(O)c3ccccc3)C=CC3C(=O)N(C4CCCCC4)C(=O)C32)cc1 (configuration not stated)	0 (no)
C=CC[C@H](OC(=O)Nc1ccc(SC)cc1)c1ccc(O)c(F)c1	0 (no)

Does composite z-score meet or surpass -0.6 for "C=C(/C=C\CNS(=O)(=O)c1ccc(C)cc1)[C@H](O)[C@H]1CCCN1S(=O)(=O)c1ccccc1[N+](=O)[O-]" ?
1 (yes)

Does composite z-score meet or surpass -0.6 for "COc1ccc(C#Cc2ccc3c(c2)[C@]2(C(=O)N3)[C@H](c3ccccc3OCCO)N3[C@H](c4ccccc4)[C@H](c4ccccc4)OC(=O)[C@H]3[C@@H]2C(=O)NC[C@H](O)c2ccccc2)cc1" ?
0 (no)

* * *

Entries and their composite z-score values follow.
Molecular target: Calmodulin-1 (Homo sapiens) (UniProt P0DP23)
Experiment: calcium-bound CALM1 binders on microarrays, profiling panel, artefact control for SMM control-protein annotation, biochemical, small-molecule microarray, Cy5-labelled CALM1, plus calcium (AID 1112);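 also: score merges spot fluorescence with signal to noise from triplicate slides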
Conditions: Cy5-CALM1 binding fluorescence, higher = more signal
Hey, just send me the number, nothing else.

Previously resolved entries follow.
Compound	System	composite z-score
C=C(C(=O)CC[C@@H](OC(=O)c1cccnc1)c1cccc(OCCO)c1)C(C)C	Calmodulin-1 (Homo sapiens) (UniProt P0DP23)	-1.4
C=C(COC)C(=O)CC[C@@H](OC(=O)c1ccccc1-c1ccccc1C(=O)O)c1ccccc1OCCO	Calmodulin-1 (Homo sapiens) (UniProt P0DP23)	-1.2

# query: composite z-score of entry "CO[C@H]1O[C@H](CO)[C@@H](OC(=O)Nc2ccccc2)[C@@H]2OC(=O)[C@@H](Cc3ccccc3)C/C=C/C[C@H](Cc3ccccc3)C(=O)O[C@@H]12"
-0.845

# query: composite z-score of entry COc1cc(CO)cc(I)c1O[C@H]1C=C(C(=O)NCCO)C[C@@H](N(CCN2CCOCC2)C(=O)C2CCCO2)[C@@H]1O (some centres not stated)
-0.671

# query: composite z-score of entry "COc1ccc(C(=O)Nc2ccc(CN3C(=O)[C@@]4(O[C@@H](CC(=O)N(CCO)Cc5ccccc5)[C@H]([Si](C)(C)c5ccc(OC)cc5)[C@H]4C)c4ccccc43)cc2)cc1"
-0.0779

# query: composite z-score of entry CC(C)c1ccc(NN2C(C(O)C3CCCCC3)C=CC3C(=O)N(c4ccccc4)C(=O)C32)cc1 (configuration not stated)
0.842

# query: composite z-score of entry "CCCCCCc1nc(Cc2cc(OC)c(OC)c(OC)c2)c(C)c2c1[Si](C(C)C)(C(C)C)OC2"
-0.128

* * *

Target: Luciferin 4-monooxygenase (Photinus pyralis)
Test: firefly luciferase enzyme inhibitors, primary screen, biochemical, luminescence, purified enzyme, 2006 set (AID 1141);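 also: cell-free assay with purified firefly luciferase at 100 ng per well in PBS; test concentration not given here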
Conditions: SteadyGlo luminescence, 30 min, higher = more signal, called active from +8 up or from −8 down
Binary classification by z-score, with -0.2 as an inclusive lower bound for condition met; all other cases are condition not met.

A selection of reference data follows.
Molecule	Discrete Label
[N-]=[N+]=NCc1ccccc1[C@H]1OC(c2ccc(OCCCO)cc2)=N[C@@]1(Cc1ccccc1N=[N+]=[N-])C(=O)O	condition not met
O=C1O[C@@H](c2ccccc2)[C@@H](c2ccccc2)N2[C@@H](c3ccc(OCCO)cc3)[C@]3(C(=O)Nc4ccc(C#CC5=CCCCC5)cc43)[C@@H](C(=O)Nc3nc4ccccc4s3)[C@H]12	condition not met

Does z-score meet or surpass -0.2 for "COCCOC(=O)N1C(=O)[C@@]2(c3cc(C#CCCO)ccc31)[C@H](C(=O)N1CCN(c3ncccn3)CC1)[C@H]1C(=O)O[C@H](c3ccccc3)[C@H](c3ccccc3)N1[C@@H]2c1ccc(OCCO)cc1" ?
condition not met

Does z-score meet or surpass -0.2 for CC1(C)OB(/C=C\CC(OC(=O)c2ccncc2)c2ccccc2)OC1(C)C (configuration not stated) ?
condition met

Does z-score meet or surpass -0.2 for "CO[C@H]1O[C@H](CO)[C@@H](OC(=O)Nc2cccc(F)c2)[C@H](OC(=O)c2cc3ccccc3[nH]2)[C@H]1OC(=O)c1cc2ccccc2[nH]1" ?
condition not met

Does z-score meet or surpass -0.2 for CN1C(=O)C2C(C1=O)C1C=C(CCCO)C2C(C2CC2)N1C (configuration not stated) ?
condition not met

Does z-score meet or surpass -0.2 for C[C@]12C(=O)N(CCO)[C@@H]3C(=O)N(c4ccc(Cl)cc4)CC=CC31O[C@@H]1/C=C\CCCOC(=O)C12 (some centres not stated) ?
condition met
